# Tested on: Staphylococcus aureus
# experiment.notes: Antibacterial activity against Staphylococcus aureus assessed as inhibition of bacterial growth measured by broth microdilution method
# Type: functional
# conditions.used: time 24 hrs
assay.endpoint: MIC

>>> observed("C[n+]1c2ccccc2c(Nc2nccs2)c2ccccc21.[Cl-]")
"> 64 µg/mL"
>>> observed("CCNc1c2ccccc2[n+](C)c2ccccc12.[Cl-]")
"> 64 µg/mL"
>>> observed("C[n+]1c2ccccc2c(Nc2ccccc2)c2ccccc21.[Cl-]")
"> 64 µg/mL"
>>> observed("Cc1cccc(C#Cc2c3ccccc3[n+](C)c3ccccc23)c1.[I-]")
"2 µg/mL"
>>> observed("C[n+]1c2ccccc2c(Nc2ccccn2)c2ccccc21.[Cl-]")
"> 64 µg/mL"
>>> observed("CCc1ccc(-c2c3ccccc3[n+](C)c3ccccc23)cc1.[I-]")
"1 µg/mL"

---

Let's look at some compounds and their measured MIC.
# System: Staphylococcus aureus
# experiment.notes: Antibacterial activity against Staphylococcus aureus assessed as inhibition of bacterial growth measured by broth microdilution method
# Type: functional
# conditions.used: time 24 hrs
assay.endpoint: MIC (µg/mL)

>>> observed("C[n+]1c2ccccc2c(/C=C/c2ccc(Br)cc2)c2ccccc21.[I-]")
1
>>> observed("C[n+]1c2ccccc2c(/C=C/c2ccccc2)c2ccccc21.[I-]")
2
>>> observed("C[n+]1c2ccccc2c(/C=C/c2ccc(F)cc2)c2ccccc21.[I-]")
2
>>> observed("CCCc1ccc(-c2c3ccccc3[n+](C)c3ccccc23)cc1.[I-]")
0.25
>>> observed("CCOc1ccc(/C=C/c2c3ccccc3[n+](C)c3ccccc23)cc1.[I-]")
1
>>> observed("C[n+]1c2ccccc2c(-c2ccc(C(F)(F)F)cc2)c2ccccc21.[I-]")
2
>>> observed("C[n+]1c2ccccc2c(/C=C/c2ccc(Cl)cc2)c2ccccc21.[I-]")
2
>>> observed("C[n+]1c2ccccc2c(/C=C/c2ccc(Cl)cc2Cl)c2ccccc21.[I-]")
1
>>> observed("C[n+]1c2ccccc2c(-n2cccc2)c2ccccc21.[Cl-]")
64

---

Let's look at some compounds and their measured MIC.
# Tested on: Escherichia coli
# experiment.notes: Antibacterial activity against penicillin-susceptible Escherichia coli ATCC 25922 assessed as inhibition of bacterial growth measured by broth microdilution method
# Assay type: functional
# conditions.used: time 24 hrs
assay.endpoint: MIC

>>> observed("C[n+]1c2ccccc2c(-n2cccc2)c2ccccc21.[Cl-]")
"> 64 µg/mL"
>>> observed("C[n+]1c2ccccc2c(-c2cccc([N+](=O)[O-])c2)c2ccccc21.[I-]")
"> 64 µg/mL"
>>> observed("C[n+]1c2ccccc2c(Nc2nccs2)c2ccccc21.[Cl-]")
"> 64 µg/mL"
>>> observed("C[n+]1c2ccccc2c(/C=C/c2ccc(Cl)cc2Cl)c2ccccc21.[I-]")
"32 µg/mL"
>>> observed("C[n+]1c2ccccc2c(-c2ccc(C(F)(F)F)cc2)c2ccccc21.[I-]")
"> 64 µg/mL"
>>> observed("Cc1ccc(-c2c3ccccc3[n+](C)c3ccccc23)cc1.[I-]")
"> 64 µg/mL"
>>> observed("CCCCc1ccc(C#Cc2c3ccccc3[n+](C)c3ccccc23)cc1.[I-]")
"> 64 µg/mL"
>>> observed("COc1ccc(C#Cc2c3ccccc3[n+](C)c3ccccc23)cc1.[I-]")
"> 64 µg/mL"
>>> observed("CC(C)Nc1c2ccccc2[n+](C)c2ccccc12.[Cl-]")
"> 64 µg/mL"
>>> observed("COc1ccc(/C=C/c2c3ccccc3[n+](C)c3ccccc23)cc1OC.[I-]")
"> 64 µg/mL"
>>> observed("C[n+]1c2ccccc2c(/C=C/c2ccc(Cl)cc2)c2ccccc21.[I-]")
"> 64 µg/mL"
>>> observed("C[n+]1c2ccccc2c(-c2cccc(F)c2)c2ccccc21.[I-]")
"> 64 µg/mL"
>>> observed("CCCNc1c2ccccc2[n+](C)c2ccccc12.[Cl-]")
"> 64 µg/mL"
>>> observed("C[n+]1c2ccccc2c(NC2CCCCC2)c2ccccc21.[Cl-]")
"> 64 µg/mL"
>>> observed("CC(=O)NC[C@H]1CN(c2ccc(N3CCOCC3)c(F)c2)C(=O)O1")
"> 64 µg/mL"
>>> observed("C[n+]1c2ccccc2c(Nc2ccc(Cl)cc2Cl)c2ccccc21.[Cl-]")
"> 64 µg/mL"
>>> observed("Cc1ccccc1C#Cc1c2ccccc2[n+](C)c2ccccc12.[I-]")
"> 64 µg/mL"
>>> observed("C[n+]1c2ccccc2c(/C=C/c2ccc(C(C)(C)C)cc2)c2ccccc21.[I-]")
"> 64 µg/mL"
>>> observed("Cc1ccccc1-c1c2ccccc2[n+](C)c2ccccc12.[I-]")
"> 64 µg/mL"
>>> observed("CCCCCNc1c2ccccc2[n+](C)c2ccccc12.[Cl-]")
"> 64 µg/mL"
>>> observed("COc1ccc(-c2c3ccccc3[n+](C)c3ccccc23)cc1.[I-]")
"> 64 µg/mL"
>>> observed("CCCCc1ccc(-c2c3ccccc3[n+](C)c3ccccc23)cc1.[I-]")
"64 µg/mL"
>>> observed("C[n+]1c2ccccc2c(/C=C/c2ccc(F)cc2)c2ccccc21.[I-]")
"> 64 µg/mL"
>>> observed("CCCCc1ccc(/C=C/c2c3ccccc3[n+](C)c3ccccc23)cc1.[I-]")
"> 64 µg/mL"
>>> observed("Cc1cccc(-c2c3ccccc3[n+](C)c3ccccc23)c1.[I-]")
"> 64 µg/mL"
>>> observed("C[n+]1cc2c3c(ccc2c2ccc4cc5c(cc4c21)OCO5)OCO3.[Cl-] [SANGUINARIUM CHLORIDE]")
"32 µg/mL"
>>> observed("COc1ccc(Nc2c3ccccc3[n+](C)c3ccccc23)c(OC)c1.[Cl-]")
"> 64 µg/mL"
>>> observed("C[n+]1c2ccccc2c(Nc2ccccc2)c2ccccc21.[Cl-]")
"> 64 µg/mL"
>>> observed("CCCCCCCNc1c2ccccc2[n+](C)c2ccccc12.[Cl-]")
"> 64 µg/mL"
>>> observed("CCCOc1ccc(C#Cc2c3ccccc3[n+](C)c3ccccc23)cc1.[I-]")
"> 64 µg/mL"
>>> observed("CCCCCCCCNc1c2ccccc2[n+](C)c2ccccc12.[Cl-]")
"> 64 µg/mL"
>>> observed("COc1ccccc1C#Cc1c2ccccc2[n+](C)c2ccccc12.[I-]")
"> 64 µg/mL"
>>> observed("COc1ccccc1/C=C/c1c2ccccc2[n+](C)c2ccccc12.[I-]")
"> 64 µg/mL"
>>> observed("CCc1ccc(-c2c3ccccc3[n+](C)c3ccccc23)cc1.[I-]")
"> 64 µg/mL"
>>> observed("COc1ccc2cc3[n+](cc2c1OC)CCc1cc2c(cc1-3)OCO2.[Cl-] [BERBERINE CHLORIDE]")
"> 64 µg/mL"
>>> observed("C[n+]1c2ccccc2c(Nc2ccccc2-c2ccccc2)c2ccccc21.[Cl-]")
"> 64 µg/mL"
>>> observed("C[n+]1c2ccccc2c(/C=C/c2ccccc2)c2ccccc21.[I-]")
"> 64 µg/mL"
>>> observed("CCc1ccccc1Nc1c2ccccc2[n+](C)c2ccccc12.[Cl-]")
"> 64 µg/mL"
>>> observed("CCc1ccc(/C=C/c2c3ccccc3[n+](C)c3ccccc23)cc1.[I-]")
"64 µg/mL"
>>> observed("C[n+]1c2ccccc2c(Nc2ccncn2)c2ccccc21.[Cl-]")
"> 64 µg/mL"
>>> observed("C[n+]1c2ccccc2c(-c2ccccc2)c2ccccc21.[I-]")
"> 64 µg/mL"
>>> observed("CCOc1ccc(C#Cc2c3ccccc3[n+](C)c3ccccc23)cc1.[I-]")
"> 64 µg/mL"

These data points were gathered from ChEMBL document CHEMBL4837210.
